- TEST PROTOCOL: Pharmacokinetic Determination (Rat PK)
- Type: in vivo
- CONDITION INFO: plasma, female SD rats, PO, 10.0 mg/kg
OUTCOME MEASURE: Cmax (µM)

(a) C[C@@H]1Cc2c([nH]c3ccccc23)[C@@H](c2c(F)cc(/C=C/C(=O)O)cc2F)N1CC12CC(C1)C2 [Example 5A]
(b) C[C@@H]1Cc2c([nH]c3ccccc23)[C@@H](c2c(F)cc(/C=C/C(=O)O)cc2F)N1[C@H]1CCOC1 [Example 8A]
### Prompt In the pair a and b , the larger recorded Cmax belongs to which? Respond with the label that goes with your answer.
### Response b
(b: 24.5 µM, a: 10.8 µM)

(P) CC/C(=C(/c1ccc(/C=C/C(=O)O)cc1)c1ccc2[nH]ncc2c1)c1ccc(F)cc1Cl [ARN810, reference compound]
(Q) C[C@@H]1Cc2c([nH]c3ccccc23)[C@@H](c2c(F)cc(/C=C/C(=O)O)cc2F)N1C12CC(C1)C2 [Example 11A]
(R) C[C@@H]1Cc2c([nH]c3ccccc23)[C@@H](c2c(F)cc(/C=C/C(=O)O)cc2F)N1CC(C)(C)F [AZD9496, reference compound]
### Prompt # sort list by recorded Cmax, greatest to least // list labels; follow requested order
### Response Q, R, P
